- measurement.target: human CRBP1 (Homo sapiens, UniProt P09455)
- Sequence (P09455 1-135): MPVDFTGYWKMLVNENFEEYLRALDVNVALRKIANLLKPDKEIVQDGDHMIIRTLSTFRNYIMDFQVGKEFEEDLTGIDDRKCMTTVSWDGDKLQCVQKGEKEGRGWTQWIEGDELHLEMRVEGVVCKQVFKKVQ
- test.description: fluorescence atROL-replacement assay (Ki determination)
- Format: binding
measured.property: pKi
By convention, pKi is the negative base-10 log of a molar concentration.

Study these solved cases before continuing.
compound	pKi
CC(c1cccs1)N(C)Cc1nc(C(c2ccccc2)c2ccccc2)no1 (stereo not shown)	4.97
CCN(CCn1cccn1)Cc1nc(C2(c3ccc(C)cc3)CCCC2)no1	5.15
Cc1ccc(C2(c3noc(CN(C)Cc4cccs4)n3)CCCC2)cc1	5.05

--- query ---
Record for Cc1ccc(C2(c3noc(CN(C)Cc4cnn(C)c4)n3)CCCC2)cc1 under target or system human CRBP1 (Homo sapiens, UniProt P09455): pKi reported as 4.97
